Quick reference: logP (HCOOH) of the listed items.
- Assay Remarks: log P determination by HPLC on reversed-phase columns (C 18), analogously to OECD Guideline 117
- Format: physicochemical
- Measurement Parameters: LC-MS in the acidic range, pH 2.7, 0.1% aqueous formic acid / acetonitrile, HPLC reversed-phase C 18
Format: numeric value only, no unit, no commentary.

The examples below pair each entry with its known result.
| Molecule | logP (HCOOH) |
| --- | --- |
| CCn1c(=O)n(C(C)(C)C)c(=O)n1-c1ccc(C)c(SCC(F)(F)F)c1 [Example 134] | 4.32 |
| Cc1cc(F)c(N2C(=O)C(=O)N(CC(C)(C)C)C2=S)cc1SCC(F)(F)F [Example 192] | 4.89 |

Quick note, logP (HCOOH) for Cc1cc(F)c(N2C(=O)C(=O)N(C3CC3)C2=O)cc1[S+]([O-])CC(F)(F)F (centres unmarked) [Example 183] landed at 2.31

Form: molecule = Cc1cc(F)c(N2CC(=O)N(C3CC3)C2=O)cc1[S+]([O-])CC(F)(F)F (centres unmarked) [Example 209] ; logP (HCOOH) = 1.92

Recorded logP (HCOOH) (molecule Cc1cc(F)c(N2C(=O)CSC2=NCC(C)(C)C)cc1SCC(F)(F)F [Example 113] ): 4.84

So, CCCn1c(=O)n(C)n(-c2cc(SCC(F)(F)F)c(C)cc2F)c1=O [Example 160] ? Its logP (HCOOH) was 3.28

Record C=CCn1c(=O)n(-c2cc([S+]([O-])CC(F)(F)F)c(C)cc2F)c(=O)n1C (racemic) [Example 124] , field logP (HCOOH): 2.00

Value of measured logP (HCOOH) for the entry CCn1c(=O)n(C2CC2)c(=O)n1-c1cc(SCC(F)(F)F)c(C)cc1F [Example 127] : 3.19

* * *

Recorded logP (neutral), one value per entry.
- Assay Remarks: log P determination by HPLC on reversed-phase columns (C 18), analogously to OECD Guideline 117
- Format: physicochemical
- Measurement Parameters: LC-MS in the neutral range, pH 7.8, 0.001 molar aqueous ammonium hydrogencarbonate / acetonitrile, HPLC reversed-phase C 18
Field format: numeric only.

| Compound | logP (neutral) |
| --- | --- |
| Cn1c(=O)n(C2CC2)c(=O)n1-c1ccc(C#N)c(SCC(F)(F)F)c1 | 2.45 |

GET /value?item= Cc1cc(F)c(N2C(=O)C(=O)N(CC(C)(C)C)C2=S)cc1[S+]([O-])CC(F)(F)F (stereo not drawn) &field=logP (neutral) returns 3.79

So, Cc1cc(C)c(N2C(=O)CSC2=NC2CC2)cc1SCC(F)(F)F ? Its logP (neutral) was 3.65

Please fill in: logP (neutral) reported for Cc1cc(F)c(-n2[nH]c(=O)n(-c3cccc(Cl)c3)c2=O)cc1SCC(F)(F)F = 1.33

Value of measured logP (neutral) for the entry Cn1c(=O)n(C2CC2)c(=O)n1-c1ccc(Cl)c([S+]([O-])CC(F)(F)F)c1 (stereo not drawn) : 2.17

Lab book: logP (neutral) of Cc1cc(F)c(-n2c(=O)n(C(C)(C)C)c(=O)n2CC(F)(F)F)cc1SCC(F)(F)F noted as 4.28

logP (neutral) recorded for this compound, Cn1c(=O)n(C2CC2)c(=O)n1-c1ccc(Br)c(SCC(F)(F)F)c1 , is 3.05

Record summary for Cc1cc(C)c([S+]([O-])CC(F)(F)F)cc1-n1c(=O)n(C2CC2)c(=O)n1C (stereo not drawn) : reported logP (neutral) = 1.93

* * *

- Assay Remarks: log P determination by HPLC on reversed-phase columns (C 18), analogously to OECD Guideline 117
- Format: physicochemical
- Measurement Parameters: LC-MS in the acidic range, pH 2.7, 0.1% aqueous formic acid / acetonitrile, HPLC reversed-phase C 18
Quantity Kind: logP (HCOOH)
I only need the number, thanks.

Below, each entry is followed by its recorded logP (HCOOH) result.
| Compound | logP (HCOOH) |
| --- | --- |
| C=CCn1c(=O)n(C2CC2)c(=O)n1-c1cc(SCC(F)(F)F)c(C)cc1F | 3.31 |
| CCn1c(=O)n(CC)n(-c2ccc(C)c([S+]([O-])CC(F)(F)F)c2)c1=O (stereo not shown) | 2.20 |
| Cc1cc(F)c(-n2c(=O)n(C3CC3)c(=O)n2C(C)C)cc1[S+]([O-])CC(F)(F)F (stereo not shown) | 2.51 |

Input C=CCN1CC(=O)N(c2cc([S+]([O-])CC(F)(F)F)c(C)cc2F)C1=O (racemic) . Output logP (HCOOH): 2.02

* * *

efficacy in % overview
- System: greenhouse red spider mite (Tetranychus urticae)
- Assay Remarks: Tetranychus urticae spray test, OP-resistant (TETRUR), bean leaf disks
- Format: in vivo
- Measurement Parameters: bean leaf disks; application rate 100 g/ha; after 6 days
Report as a plain number; the unit % is understood.

Note to self: efficacy in % recorded for C=CCn1c(=O)n(C)n(-c2cc(SCC(F)(F)F)c(C)cc2F)c1=O [Example 81] was 100

Sample C=CCn1c(=O)n(-c2ccc(C)c(SCC(F)(F)F)c2)n(-c2ccc(C)c(SCC(F)(F)F)c2)c1=O [Example 79] ; efficacy in % observed: 90

Noted for Cc1cc(F)c(-n2c(=O)n(C(C)(C)C)c(=O)n2C)cc1SCC(F)(F)F [Example 94] : its efficacy in % reads 90

According to the records, this molecule Cc1cc(C)c(N2C(=O)CSC2=NC2CC2)cc1SCC(F)(F)F [Example 112] displays efficacy in % of 100

Input Cc1cc(F)c(-n2c(=O)n(-c3ccccc3)c(=O)n2C)cc1SCC(F)(F)F [Example 162] . Output efficacy in %: 100

* * *

- Assay Remarks: log P determination by HPLC on reversed-phase columns (C 18), analogously to OECD Guideline 117
- Format: physicochemical
- Measurement Parameters: LC-MS in the neutral range, pH 7.8, 0.001 molar aqueous ammonium hydrogencarbonate / acetonitrile, HPLC reversed-phase C 18
Quantity Kind: logP (neutral)
Reply briefly: the number, and no unit.

Example results:
| Compound | Quantity Kind | Result Value |
| --- | --- | --- |
| Cc1ccc(-n2c(=O)n(C3CC3)c(=O)n2C)cc1[S+]([O-])CC(F)(F)F (stereo not drawn) | logP (neutral) | 1.87 |
| COCCCn1c(=O)n(C)n(-c2cc(SCC(F)(F)F)c(C)cc2F)c1=O | logP (neutral) | 2.95 |
| C=CCn1c(=O)n(CC(F)(F)F)n(-c2cc([S+]([O-])CC(F)(F)F)c(C)cc2F)c1=O (stereo not drawn) | logP (neutral) | 2.89 |
| Cc1cc(F)c(-n2c(=O)n(C)c(=O)n2C(C)C)cc1SCC(F)(F)F | logP (neutral) | 3.23 |
| Cc1cc(F)c(-n2[nH]c(=O)n(C3CC3)c2=O)cc1SCC(F)(F)F [Example 66] | logP (neutral) | 0.69 |
| CCn1c(=O)n(C)c(=O)n1-c1cc([S+]([O-])CC(F)(F)F)c(C)cc1F (stereo not drawn) | logP (neutral) | 1.91 |

Quick note, logP (neutral) for C=CCn1c(=O)n(C)n(-c2cc(SCC(F)(F)F)c(C)cc2F)c1=O landed at 3.01

Notebook: CCn1c(=O)n(-c2cc(SCC(F)(F)F)c(C)cc2F)n(C(C)(C)C)c1=O , logP (neutral) read as 4.13

The recorded logP (neutral) for Cn1c(=O)n(C)n(-c2cc([S+]([O-])CC(F)(F)F)c(Cl)cc2F)c1=O (stereo not drawn) is 1.91

logP (neutral) in this record for Cc1cc(F)c(N2CCN(C)C2=O)cc1SCC(F)(F)F : 2.75

Sure, the documented logP (neutral) for Cc1ccc(-n2c(=O)n(C)c(=O)n2CC2CC2)cc1SCC(F)(F)F is 3.29

Lookup result for Cc1cc(F)c(-n2c(=O)n(C(C)C)c(=O)n2C)cc1[S+]([O-])CC(F)(F)F (stereo not drawn) ; measured logP (neutral): 2.22

For C=CCn1c(=O)n(C2CC2)c(=O)n1-c1cc([S+]([O-])CC(F)(F)F)c(C)cc1F (stereo not drawn) the compound record lists logP (neutral) as 2.30

What the record says about Cn1c(=O)n(C)n(-c2ccc(Br)c([S+]([O-])CC(F)(F)F)c2)c1=O (stereo not drawn) : logP (neutral) is 2.02

Recorded logP (neutral) (compound Cc1cc(F)c(N2C(=O)CSC2=NCC(C)(C)C)cc1SCC(F)(F)F ): 4.73

Entry COc1ccc(-n2c(=O)n(C)c(=O)n2C)cc1[S+]([O-])CC(F)(F)F (stereo not drawn) , logP (neutral) reported as 1.54

Memo: Cc1ccc(-n2c(=O)n(C)c(=O)n2-c2ccc(C)c([S+]([O-])CC(F)(F)F)c2)cc1[S+]([O-])CC(F)(F)F (stereo not drawn) , reported logP (neutral): 2.61

The measured logP (neutral) associated with CCn1c(=O)n(CC(F)(F)F)n(-c2cc(SCC(F)(F)F)c(C)cc2F)c1=O reads 3.49

// logP (neutral) lookup, compound = CCC1(CC)C(=O)N(C)N(c2cc([S+]([O-])CC(F)(F)F)c(C)cc2F)C1=O (stereo not drawn) , result: 2.31

logP (neutral) recorded for this compound, Cc1cc(F)c(-n2c(=O)n(C(C)C)c(=O)n2CC(F)(F)F)cc1[S+]([O-])CC(F)(F)F (racemic) , is 3.04

The reported logP (neutral) of the compound CCn1c(=O)n(C)n(-c2ccc(C)c([S+]([O-])CC(F)(F)F)c2)c1=O (stereo not drawn) was 1.91

Briefly, logP (neutral) measured for Cc1cc(F)c(N2C(=O)C(=O)N(CC(C)(C)C)C2=S)cc1SCC(F)(F)F : 4.80

Memo: CCn1c(=O)n(C(C)(C)C)c(=O)n1-c1cc([S+]([O-])CC(F)(F)F)c(C)cc1F (stereo not drawn) , reported logP (neutral): 2.96

In plain terms, Cc1cc(F)c(N2C(=O)CSC2=NCC(C)C)cc1SCC(F)(F)F has a documented logP (neutral) of 4.31

Reported logP (neutral) of Cc1cc(F)c(-n2c(=O)n(-c3ccccc3)c(=O)n2CC(F)(F)F)cc1[S+]([O-])CC(F)(F)F (stereo not drawn) : 3.01

Cn1c(=O)n(C)n(-c2ccc(Cl)c(SCC(F)(F)F)c2)c1=O yielded logP (neutral) of 2.69

// field: logP (neutral); key: Cc1ccc(-n2c(=O)n(C(C)C)c(=O)n2C)cc1[S+]([O-])CC(F)(F)F (stereo not drawn) ; value = 2.24

Cc1cc(F)c(N2CCN(C)C2=O)cc1[S+]([O-])CC(F)(F)F (racemic) has a reported logP (neutral) of 1.74

Item: CCCn1c(=O)n(C2CC2)c(=O)n1-c1cc([S+]([O-])CC(F)(F)F)c(C)cc1F (stereo not drawn) | logP (neutral): 2.42
